- run description: Pharmacokinetics study in mice (cassette)
- Type: in vivo
- condition notes: female, Balb/c, plasma, iv; mouse cassette PK, i.v. 1 mg/kg
Structures can show the parent of a compound that is named as a salt.
property label: half-life (h)

a = CC/C(=C(/c1ccc(OCCNC/C=C/C(=O)N(C)C)nc1)c1[nH]c2ccccc2c1Cl)c1cccc(OC)c1 [Compound 4 monohydrochloride]
b = CC/C(=C(/c1ccc(OCCNC/C=C/C(=O)N(C)C)nc1)c1[nH]c2ccccc2c1Cl)c1ccccc1 [Compound 3 monohydrochloride]
IN: Problem: Given the entries a and b , determine which has the lower reported half-life. Label of pick, please.
OUT: a

---

- run description: Pharmacokinetics study in rats (cassette)
- Assay type: in vivo
- condition notes: female, SD, plasma, po; rat cassette PK, p.o. 2 mg/kg
Counter-ions that a name gives are not always drawn.
property label: Cmax (nM)

I = CC/C(=C(/c1ccc(OCCNC/C=C/C(=O)N(C)C)nc1)c1[nH]c2ccccc2c1Cl)c1ccccc1 [Compound 3 monohydrochloride]
II = CC/C(=C(/c1ccc(OCCNC/C=C/C(=O)N(C)C)nc1)c1[nH]c2ccccc2c1Cl)c1cccc(OC)c1 [Compound 4 monohydrochloride]
IN: // pick larger Cmax from pair: I vs II Label of pick, please.
OUT: I
(I: 464 nM, II: 233 nM)

---

- run description: Pharmacokinetics study in mice (cassette)
- Type: in vivo
- condition notes: female, Balb/c, plasma, po; mouse cassette PK, p.o. 2 mg/kg
Counter-ions that a name gives are not always drawn.
property label: Cmax (nM)

[[record]]
compound = "CC/C(=C(/c1ccc(OCCNC/C=C/C(=O)N(C)C)nc1)c1[nH]c2ccccc2c1Cl)c1cccc(OC)c1 [Compound 4 monohydrochloride]"
quantitative_result = 159

[[record]]
compound = "CC/C(=C(/c1ccc(OCCNC/C=C/C(=O)N(C)C)nc1)c1[nH]c2ccccc2c1Cl)c1ccccc1 [Compound 3 monohydrochloride]"
quantitative_result = 224


---

- system under test: CYP1A2 (Homo sapiens, UniProt P05177)
- Sequence (P05177 1-516): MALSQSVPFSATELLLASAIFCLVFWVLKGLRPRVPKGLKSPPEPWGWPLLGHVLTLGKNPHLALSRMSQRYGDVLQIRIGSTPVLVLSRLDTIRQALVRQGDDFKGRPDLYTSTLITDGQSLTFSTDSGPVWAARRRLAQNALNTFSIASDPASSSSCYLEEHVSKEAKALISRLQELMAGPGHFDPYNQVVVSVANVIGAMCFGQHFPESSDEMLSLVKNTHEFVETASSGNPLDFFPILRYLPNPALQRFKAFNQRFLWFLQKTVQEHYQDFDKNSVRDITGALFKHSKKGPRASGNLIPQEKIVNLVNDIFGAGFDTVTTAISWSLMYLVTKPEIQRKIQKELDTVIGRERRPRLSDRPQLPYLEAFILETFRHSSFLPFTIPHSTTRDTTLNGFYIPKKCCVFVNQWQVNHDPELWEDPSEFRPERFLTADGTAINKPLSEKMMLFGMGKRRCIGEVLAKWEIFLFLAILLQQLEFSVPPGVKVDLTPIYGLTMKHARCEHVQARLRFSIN
Where a name gives a salt, the structure may show the parent alone.
property label: pIC50
The meaning of pIC50 here: minus log10 of the concentration in molar units.

IN: Record request: pIC50 value, item CC/C(=C(/c1ccc(OCCNC/C=C/C(=O)N(C)C)nc1)c1[nH]c2ccccc2c1Cl)c1ccccc1 [Compound 3 monohydrochloride]
OUT: 4.35
